Please provide measured IL-8 secretion by OX40 overexpressing functional cell line, best-fit value Bottom for the entries that follow.
Target: T1, OX40 on a functional cell line overexpressing OX40 (UniProt P43489 29-277, limits assumed)
T1 sequence (looked up): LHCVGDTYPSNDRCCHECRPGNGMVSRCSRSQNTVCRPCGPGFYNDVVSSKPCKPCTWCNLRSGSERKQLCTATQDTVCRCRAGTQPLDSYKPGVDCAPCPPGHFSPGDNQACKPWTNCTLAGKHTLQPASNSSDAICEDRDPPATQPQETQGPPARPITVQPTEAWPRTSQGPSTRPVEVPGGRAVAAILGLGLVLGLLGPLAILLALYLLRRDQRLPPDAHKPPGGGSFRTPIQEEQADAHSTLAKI
Experiment: cell-based or functional assay
One number for each entry.

1. AH02921 humanized anti-human OX40 monoclonal antibody (recombinant human IgG1/kappa) (antibody, V domains shown) VH: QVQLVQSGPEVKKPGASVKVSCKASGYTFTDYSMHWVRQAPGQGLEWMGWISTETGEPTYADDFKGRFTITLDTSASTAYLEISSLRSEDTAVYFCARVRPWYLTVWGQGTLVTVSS VL: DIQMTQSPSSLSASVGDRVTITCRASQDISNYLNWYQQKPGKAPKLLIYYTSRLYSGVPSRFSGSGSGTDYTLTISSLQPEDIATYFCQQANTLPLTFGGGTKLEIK
4420
2. AH02916 humanized anti-human OX40 monoclonal antibody (recombinant human IgG1/kappa) (antibody, V domains shown) VH: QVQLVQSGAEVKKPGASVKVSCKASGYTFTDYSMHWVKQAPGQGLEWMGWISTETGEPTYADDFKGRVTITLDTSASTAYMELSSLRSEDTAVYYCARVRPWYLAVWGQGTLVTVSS VL: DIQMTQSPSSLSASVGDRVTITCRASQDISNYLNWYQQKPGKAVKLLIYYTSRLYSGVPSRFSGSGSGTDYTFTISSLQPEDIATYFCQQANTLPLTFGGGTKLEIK
3590

Consider the additional binder presented here.
Return IL-8 secretion by OX40 overexpressing functional cell line, best-fit value Bottom for the following binder: AH02919 humanized anti-human OX40 monoclonal antibody (recombinant human IgG1/kappa) (antibody, V domains shown) VH: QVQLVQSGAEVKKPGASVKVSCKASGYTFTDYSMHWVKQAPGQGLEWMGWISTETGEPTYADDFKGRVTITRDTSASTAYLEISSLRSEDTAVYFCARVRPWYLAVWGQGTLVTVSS VL: DIQMTQSPSSLSASVGDRVTITCRASQDISNYLNWYQQKPGKAVKLLIYYTSRLYSGVPSRFSGSGSGTDYTLTISSLQPEDIATYYCQQANTLPLTFGGGTKLEIK
3060
